Species on record: Rattus norvegicus
Test details: DrugMatrix - Regimen: Daily Repeat
Type: toxicity, organism-based, Sprague-Dawley
Parameters: regimen Daily Repeat, gender Male, age 6-8 weeks
Conditions: in vivo, po, 2000 mg/kg, 72 h, tissue Blood, route oral GAVAGE, dose level High, time 3 day, vehicle .5 % CMC
Quantity measured: NUCLEATED RED BLOOD CELLS

Past entries and their recorded results:
INSERT INTO measurements (compound, quantity_measured, observed_result) VALUES
  ('CC1(C)S[C@@H]2[C@H](NC(=O)[C@H](N)c3ccccc3)C(=O)N2[C@H]1C(=O)O [AMPICILLIN]', 'NUCLEATED RED BLOOD CELLS', '0 /100WBC'),
  ('CN/C(=N/CCSCc1nc[nH]c1C)NC#N [CIMETIDINE]', 'NUCLEATED RED BLOOD CELLS', '0.33 /100WBC'),
  ('O=C1Nc2ccc(Cl)cc2C(c2ccccc2Cl)=NC1O (centres undefined) [LORAZEPAM]', 'NUCLEATED RED BLOOD CELLS', '0 /100WBC');

Field: next compound
According to the records, this compound COc1cc2nc(N3CCN(C(=O)c4ccco4)CC3)nc(N)c2cc1OC [PRAZOSIN] displays NUCLEATED RED BLOOD CELLS of 0 /100WBC

* * *

Overview of reported ABSOLUTE LYMPHOCYTE across a group of compounds:
Species on record: Rattus norvegicus
Test details: DrugMatrix - Regimen: Daily Repeat
Format: toxicity, organism-based, Sprague-Dawley
Design: regimen Daily Repeat, gender Male, age 6-8 weeks
Conditions: in vivo, po, 0 mg/kg, 120 h, tissue Blood, route oral GAVAGE, dose level Control, time 5 day, vehicle 100 % WATER
I only need the number, in CELLS/uL, no unit after it.

Past entries and their recorded results:
INSERT INTO assay_data (compound, quantity_measured, observed_result) VALUES
  ('Cn1c(=O)c2[nH]cnc2n(C)c1=O.O', 'ABSOLUTE LYMPHOCYTE', 13539.33),
  ('CCN(CC)CCNC(=O)c1cc(S(C)(=O)=O)ccc1OC [TIAPRIDE]', 'ABSOLUTE LYMPHOCYTE', 12977.83);

According to the records, this compound CC(C)(C)CC(C)(C)c1ccc(OCCOCC[N+](C)(C)Cc2ccccc2)cc1.[Cl-] [BENZETHONIUM CHLORIDE] displays ABSOLUTE LYMPHOCYTE of 12202.83

According to the records, this compound CC(C)NCC(O)c1ccc(NS(C)(=O)=O)cc1 (configuration not stated) displays ABSOLUTE LYMPHOCYTE of 11134.17

According to the records, this compound `CS(=O)(=O)c1ccc([C@@H](O)[C@@H](CO)NC(=O)C(Cl)Cl)cc1` displays ABSOLUTE LYMPHOCYTE of 12977.83

According to the records, this compound O.O.O.O.O.O.[Cl-].[Cl-].[Sr+2] [STRONTIUM CHLORIDE HEXAHYDRATE] displays ABSOLUTE LYMPHOCYTE of 12977.83

According to the records, this compound NNc1nncc2ccccc12 [HYDRALAZINE] displays ABSOLUTE LYMPHOCYTE of 12202.83

According to the records, this compound `C[C@]12C=CC(=O)C=C1CC[C@@H]1[C@@H]2[C@@H](O)C[C@@]2(C)[C@H]1CC[C@]2(O)C(=O)CO` displays ABSOLUTE LYMPHOCYTE of 15680

According to the records, this compound CN(C)CCOC(c1ccccc1)c1ccccc1 [DIPHENHYDRAMINE] displays ABSOLUTE LYMPHOCYTE of 12202.83

According to the records, this compound `CN(C)CC[C@@H](c1ccc(Cl)cc1)c1ccccn1` displays ABSOLUTE LYMPHOCYTE of 12577.83

According to the records, this compound CN1[C@@H]2CC[C@H]1C[C@@H](OC(=O)C(CO)c1ccccc1)C2 (some centres not stated) displays ABSOLUTE LYMPHOCYTE of 9267.83

According to the records, this compound `Cc1ccc(NC(=O)c2ccc(CN3CCN(C)CC3)cc2)cc1Nc1nccc(-c2cccnc2)n1` displays ABSOLUTE LYMPHOCYTE of 12977.83
